PROTOCOL TEXT: Brain pharmacokinetic (PK) study in mice
Assay type: in vivo
ASSAY SETUP: mouse, plasma; 1 hour; single PO dose, lapatanib 50 mg/kg, ARRY-380 75 mg/kg (AR00440993 = metabolite of ARRY-380); nude female BALB/c mice; read-out: Average Plasma Concentration

COMPOUND: Cc1cc(Nc2ncnc3ccc(NC4=NC(C)(CO)CO4)cc23)ccc1Oc1ccn2ncnc2c1 (stereo not shown) [AR00440993]
UNIT INFO: µg/mL
concentration at 1 h: 67.3

###

PROTOCOL TEXT: Brain pharmacokinetic (PK) study in mice
Format: in vivo
ASSAY SETUP: female, nude BALB/c, mouse; 0.5 hour; single PO dose, lapatanib 50 mg/kg, ARRY-380 75 mg/kg (AR00440993 = metabolite); perfused brain; read-out: Average Brain Concentration
Experimental: The mice were separated into groups and their PK was studied at 4 time points (0.5, 1, 2 and 4 hours, 4 mice per group per timepoint). The animals were euthanized by CO2 inhalation at the time points. Whole blood was drawn (300 μL) by cardiac puncture and […] eppendorf tube containing ethylenediaminetetraacetic acid (“EDTA”) ([…]). The samples were centrifuged, and the plasma was decanted and frozen at -20° C. until delivered to analytical chemistry. The brains were collected. […]
QUANTITY NAME: concentration at 0.5 h (ng/g)

MOLECULE: Cc1cc(Nc2ncnc3ccc(NC4=NC(C)(C)CO4)cc23)ccc1Oc1ccn2ncnc2c1
RECORDED RESULT: 122
//
MOLECULE: CS(=O)(=O)CCNCc1ccc(-c2ccc3ncnc(Nc4ccc(OCc5cccc(F)c5)c(Cl)c4)c3c2)o1 [Lapatanib, lapatinib, reference compound]
RECORDED RESULT: 44.9

###

PROTOCOL TEXT: Brain pharmacokinetic (PK) study in mice
Assay type: in vivo
ASSAY SETUP: female, nude BALB/c, mouse; 1 hour; single PO dose, lapatanib 50 mg/kg, ARRY-380 75 mg/kg (AR00440993 = metabolite); perfused brain; read-out: Average Brain Concentration
QUANTITY NAME: concentration at 1 h (ng/g)

COMPOUND: Cc1cc(Nc2ncnc3ccc(NC4=NC(C)(CO)CO4)cc23)ccc1Oc1ccn2ncnc2c1 (stereo not drawn) [AR00440993]
RECORDED RESULT: 28.9
//
COMPOUND: CS(=O)(=O)CCNCc1ccc(-c2ccc3ncnc(Nc4ccc(OCc5cccc(F)c5)c(Cl)c4)c3c2)o1 [Lapatanib, lapatinib, reference compound]
RECORDED RESULT: 90.8
//
COMPOUND: Cc1cc(Nc2ncnc3ccc(NC4=NC(C)(C)CO4)cc23)ccc1Oc1ccn2ncnc2c1 [ARRY-380]
RECORDED RESULT: 116

###

PROTOCOL TEXT: Brain pharmacokinetic (PK) study in mice
Assay type: in vivo
ASSAY SETUP: female, nude BALB/c, mouse, brain / plasma; 4 hour; single PO dose, lapatanib 50 mg/kg, ARRY-380 75 mg/kg; read-out: brain:plasma ratio

MOLECULE: Cc1cc(Nc2ncnc3ccc(NC4=NC(C)(CO)CO4)cc23)ccc1Oc1ccn2ncnc2c1 (stereo not drawn)
Kp at 4 h: 1.31

MOLECULE: CS(=O)(=O)CCNCc1ccc(-c2ccc3ncnc(Nc4ccc(OCc5cccc(F)c5)c(Cl)c4)c3c2)o1 [Lapatanib, lapatinib, reference compound]
Kp at 4 h: 0.038

MOLECULE: Cc1cc(Nc2ncnc3ccc(NC4=NC(C)(C)CO4)cc23)ccc1Oc1ccn2ncnc2c1
Kp at 4 h: 0.019

###

PROTOCOL TEXT: Brain pharmacokinetic (PK) study in mice
Type: in vivo
ASSAY SETUP: female, nude BALB/c, mouse, brain / plasma; 1 hour; single PO dose, lapatanib 50 mg/kg, ARRY-380 75 mg/kg; read-out: brain:plasma ratio
Kp at 1 h overview

COMPOUND: Cc1cc(Nc2ncnc3ccc(NC4=NC(C)(C)CO4)cc23)ccc1Oc1ccn2ncnc2c1
Kp at 1 h: 0.048
//
COMPOUND: Cc1cc(Nc2ncnc3ccc(NC4=NC(C)(CO)CO4)cc23)ccc1Oc1ccn2ncnc2c1 (stereo not drawn)
Kp at 1 h: 2.08
//
COMPOUND: CS(=O)(=O)CCNCc1ccc(-c2ccc3ncnc(Nc4ccc(OCc5cccc(F)c5)c(Cl)c4)c3c2)o1 [Lapatanib, lapatinib, reference compound]
Kp at 1 h: 0.022

###

PROTOCOL TEXT: Brain pharmacokinetic (PK) study in mice
Type: in vivo
ASSAY SETUP: mouse, plasma; 4 hour; single PO dose, lapatanib 50 mg/kg, ARRY-380 75 mg/kg (AR00440993 = metabolite of ARRY-380); nude female BALB/c mice; read-out: Average Plasma Concentration

COMPOUND: Cc1cc(Nc2ncnc3ccc(NC4=NC(C)(CO)CO4)cc23)ccc1Oc1ccn2ncnc2c1 (stereo not shown)
concentration at 4 h (µg/mL): 70.4

###

PROTOCOL TEXT: Brain pharmacokinetic (PK) study in mice
Format: in vivo
ASSAY SETUP: mouse, plasma; 0.5 hour; single PO dose, lapatanib 50 mg/kg, ARRY-380 75 mg/kg (AR00440993 = metabolite of ARRY-380); nude female BALB/c mice; read-out: Average Plasma Concentration

MOLECULE: Cc1cc(Nc2ncnc3ccc(NC4=NC(C)(CO)CO4)cc23)ccc1Oc1ccn2ncnc2c1 (stereo not shown)
UNIT INFO: ng/mL
concentration at 0.5 h: 20200

###

PROTOCOL TEXT: Brain pharmacokinetic (PK) study in mice
Format: in vivo
ASSAY SETUP: 0.5 hour; single PO dose, lapatanib 50 mg/kg, ARRY-380 75 mg/kg (AR00440993 = metabolite of ARRY-380); nude female BALB/c mice
Average Plasma Concentration overview

MOLECULE: CS(=O)(=O)CCNCc1ccc(-c2ccc3ncnc(Nc4ccc(OCc5cccc(F)c5)c(Cl)c4)c3c2)o1 [Lapatanib, lapatinib, reference compound]
Average Plasma Concentration: 1910 ng/mL

MOLECULE: Cc1cc(Nc2ncnc3ccc(NC4=NC(C)(C)CO4)cc23)ccc1Oc1ccn2ncnc2c1 [ARRY-380]
Average Plasma Concentration: 3350 ng/mL

###

PROTOCOL TEXT: Brain pharmacokinetic (PK) study in mice
Format: in vivo
ASSAY SETUP: female, nude BALB/c, mouse; 4 hour; single PO dose, lapatanib 50 mg/kg, ARRY-380 75 mg/kg (AR00440993 = metabolite); perfused brain; read-out: Average Brain Concentration
Procedure: The mice were separated into groups and their PK was studied at 4 time points (0.5, 1, 2 and 4 hours, 4 mice per group per timepoint). The animals were euthanized by CO2 inhalation at the time points. Whole blood was drawn (300 μL) by cardiac puncture and […] eppendorf tube containing ethylenediaminetetraacetic acid (“EDTA”) ([…]). The samples were centrifuged, and the plasma was decanted and frozen at -20° C. until delivered to analytical chemistry. The brains were collected. […]

COMPOUND: Cc1cc(Nc2ncnc3ccc(NC4=NC(C)(CO)CO4)cc23)ccc1Oc1ccn2ncnc2c1 (stereo not drawn) [AR00440993]
UNIT INFO: ng/g
concentration at 4 h: 40

COMPOUND: Cc1cc(Nc2ncnc3ccc(NC4=NC(C)(C)CO4)cc23)ccc1Oc1ccn2ncnc2c1 [ARRY-380]
UNIT INFO: ng/g
concentration at 4 h: 42.1

COMPOUND: CS(=O)(=O)CCNCc1ccc(-c2ccc3ncnc(Nc4ccc(OCc5cccc(F)c5)c(Cl)c4)c3c2)o1 [Lapatanib, lapatinib, reference compound]
UNIT INFO: ng/g
concentration at 4 h: 65.4

###

Kp at 0.5 h overview
PROTOCOL TEXT: Brain pharmacokinetic (PK) study in mice
Assay type: in vivo
ASSAY SETUP: female, nude BALB/c, mouse, brain / plasma; 0.5 hour; single PO dose, lapatanib 50 mg/kg, ARRY-380 75 mg/kg; read-out: brain:plasma ratio

MOLECULE: CS(=O)(=O)CCNCc1ccc(-c2ccc3ncnc(Nc4ccc(OCc5cccc(F)c5)c(Cl)c4)c3c2)o1 [Lapatanib, lapatinib, reference compound]
Kp at 0.5 h: 0.026
//
MOLECULE: Cc1cc(Nc2ncnc3ccc(NC4=NC(C)(C)CO4)cc23)ccc1Oc1ccn2ncnc2c1
Kp at 0.5 h: 0.048

###

PROTOCOL TEXT: Brain pharmacokinetic (PK) study in mice
Format: in vivo
ASSAY SETUP: 4 hour; single PO dose, lapatanib 50 mg/kg, ARRY-380 75 mg/kg (AR00440993 = metabolite of ARRY-380); nude female BALB/c mice

COMPOUND: CS(=O)(=O)CCNCc1ccc(-c2ccc3ncnc(Nc4ccc(OCc5cccc(F)c5)c(Cl)c4)c3c2)o1 [Lapatanib, lapatinib, reference compound]
Average Plasma Concentration / ng/mL: 1940
--
COMPOUND: Cc1cc(Nc2ncnc3ccc(NC4=NC(C)(C)CO4)cc23)ccc1Oc1ccn2ncnc2c1
Average Plasma Concentration / ng/mL: 2640

###

PROTOCOL TEXT: Brain pharmacokinetic (PK) study in mice
Type: in vivo
ASSAY SETUP: 1 hour; single PO dose, lapatanib 50 mg/kg, ARRY-380 75 mg/kg (AR00440993 = metabolite of ARRY-380); nude female BALB/c mice

COMPOUND: CS(=O)(=O)CCNCc1ccc(-c2ccc3ncnc(Nc4ccc(OCc5cccc(F)c5)c(Cl)c4)c3c2)o1 [Lapatanib, lapatinib, reference compound]
UNIT INFO: ng/mL
Average Plasma Concentration: 4310
//
COMPOUND: Cc1cc(Nc2ncnc3ccc(NC4=NC(C)(C)CO4)cc23)ccc1Oc1ccn2ncnc2c1 [ARRY-380]
UNIT INFO: ng/mL
Average Plasma Concentration: 6420
